assay: Plasma half life was evaluated; assay type: ADME, organism-based, Canis lupus familiaris; conditions: dog
QUANTITY_NAME: half-life (min)

>>> print(df.to_string())
                                   molecule  reported
0  CCO/C(O)=C1\C(COCCn2c(C)nc3cnccc32)=NC(C)=C(C(=O)Nc2ccccn2)C1c1ccccc1Cl (stereo unspecified)        45

* * *

assay: Plasma half life was evaluated in dog; type: ADME, organism-based, Canis lupus familiaris
QUANTITY_NAME: half-life (h)

In [3]: df
Out[3]:
                                   molecule  reported
0  CCOC(=O)C1=C(c2ccc(-n3c(C)nc4cnccc43)cc2)NC(C)=C(C(=O)Nc2ccccn2)C1c1ccccc1Cl (stereo in doubt; 18)       1.2
